test system: Arabidopsis; assay: Ribo-seq and RNA-seq global translatome profiling (translational efficiency TE, mORF/uORF ribo-shift) upon elf18 treatment; type: in vivo; parameters: key: Up: ribo-shift up (i.e., increased mORF/uORF ratio); Down: ribo-shift down (i.e., decreased mORF/uORF ratio); details: shift of mORF/uORF ratio, elf18 vs Mock; per uORF

molecule	score (Ribo-shift)
AT1G59700.1_1: uORF of AT1G59700.1; peptide SEQ ID NO: 7 (nucleic acid, listed as DNA, chemistry not fully specified) DNA: ATGATATGTCCGTTTAGAAACAGACAAAATAAGAAGAAGAAGAAAGAGTCGTGGAGGATTCTTCATTCTTCCTCATCCTCTTCTTCACCGATTCATTAG	Down
AT2G35510.1_1: uORF of AT2G35510.1; peptide SEQ ID NO: 11 (nucleic acid, listed as DNA, chemistry not fully specified) DNA: ATGGCTCGTCTTTTTCCAAACGATTTCTTCTTCTTCGTCGTCGCCGGTTTAGGGTTTCCGTTGCTGTAG	Up
AT5G49980.1_1: uORF of AT5G49980.1; peptide SEQ ID NO: 36 (nucleic acid, listed as DNA, chemistry not fully specified) DNA: ATGGAGACGAAGTGGAGAGAGAAAGCTCCCACTCTCTCACACCCCAAAGCTTCTTCTTCTTCTTCCTCTTCTTCCTCTTCCTCTTCTCTAATCTGA	Down
AT1G59990.1_1: uORF of AT1G59990.1; peptide SEQ ID NO: 8 (nucleic acid, listed as DNA, chemistry not fully specified) DNA: ATGAAGAGAGAGACTGAAACAGAGGTTTCTTACTTTCTTCTCTGTATCTCTCATATTTTGCTTAAACCCTAA	Down

// provenance: patent US20190352664A1
